Reported pKd is given for each of the following binders.
Target: T1, ARHGEF11, O15085
T1 sequence (O15085 42-136, limits assumed, looked up): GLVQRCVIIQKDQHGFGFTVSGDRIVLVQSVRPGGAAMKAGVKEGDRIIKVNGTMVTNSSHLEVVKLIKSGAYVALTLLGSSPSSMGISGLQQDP
Experiment: holdup assay
Set-up: key: below the threshold = too weak to quantify, mostly under pKd 3.1 to 4
Settings: plain residues with an end cap or a label only (N-terminal biotin on a linker: ahx)
Hey, just send me the number, nothing else.

Here's what some known entries look like.
>  <BINDER>
LSDPSVSTVV [GRIN1, Q05586;Q05586-2]

>  <pKd>
4.01

$$$$
>  <BINDER>
RRRKRKRTYL [HPV49-L2, P36762]

>  <pKd>
4.01

$$$$

Please examine the following record next.
Could you share which pKd value was measured for SDSSGQEYSL [KCTD3, Q9Y597] ? 3.98
